Numbers sourced from patent US10278957B2.

target-or-system: δ-opioid receptor (DOR) (Homo sapiens)
procedure-details: DOR agonist cAMP assay (HitHunter cAMP, forskolin-stimulated)
Measured EC50 of individual entries

Sample records with EC50:
>>> value("CCCC[C@@H](C(=O)O)N(C)C(=O)C[C@H](Cc1cccc(F)c1)NC(=O)CNC(=O)[C@@H](C)NC(=O)[C@@H](N)Cc1c(C)cc(O)cc1C [compound 144]")
"< 1 nM"
>>> value("Cc1cc(O)cc(C)c1C[C@H](N)C(=O)N[C@H](C)C(=O)NCC(=O)N[C@H](CC(=O)N(CC(N)=O)Cc1ccccc1)Cc1ccccc1 [compound 118]")
"< 1 nM"
>>> value("CCC[C@@H](C(=O)O)N(C)C(=O)C[C@H](Cc1ccccc1)NC(=O)CNC(=O)[C@@H](C)NC(=O)[C@@H](N)Cc1c(C)cc(O)cc1C [compound 162]")
"< 1 nM"
>>> value("Cc1cc(C(N)=O)cc(C)c1C[C@H](N)C(=O)N[C@H](C)C(=O)NCC(=O)N[C@H](CC(=O)N(C)[C@@H](CC1CCCCC1)C(=O)O)Cc1ccccc1 [compound 98]")
"1 to 10 nM"

Attention now shifts to the item below.
# input Dear colleague, I am looking for the recorded EC50 of the following compound: C[C@@H](NC(=O)[C@@H](N)CCc1ccc(O)cc1)C(=O)NCC(=O)N[C@H](CC(=O)N(C)CC(N)=O)Cc1ccccc1 [compound 54]
# output > 200 nM

----------
Measured pEC50 of individual entries
target-or-system: δ-opioid receptor (DOR) (Homo sapiens, UniProt P41143)
Sequence (P41143 whole entry): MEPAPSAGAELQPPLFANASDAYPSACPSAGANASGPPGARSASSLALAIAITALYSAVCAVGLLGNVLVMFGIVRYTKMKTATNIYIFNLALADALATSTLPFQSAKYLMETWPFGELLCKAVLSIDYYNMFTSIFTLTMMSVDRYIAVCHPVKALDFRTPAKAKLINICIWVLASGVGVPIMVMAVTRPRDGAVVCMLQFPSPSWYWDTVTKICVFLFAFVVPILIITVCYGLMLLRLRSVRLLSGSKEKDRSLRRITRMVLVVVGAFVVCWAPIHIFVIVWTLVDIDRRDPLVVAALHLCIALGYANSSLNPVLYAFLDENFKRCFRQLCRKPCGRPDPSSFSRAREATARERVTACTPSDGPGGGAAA
procedure-details: DOR agonist cAMP assay (HitHunter cAMP, forskolin-stimulated)
pEC50: −log10 of the molar value.

Sample records with pEC50:
>>> value("CCCCCCCCN(CC(N)=O)C(=O)C[C@H](Cc1ccccc1)NC(=O)CNC(=O)[C@@H](C)NC(=O)[C@@H](N)Cc1c(C)cc(O)cc1C")
"7.30 to 8.00"
>>> value("Cc1cc(O)cc(C)c1C[C@H](N)C(=O)N[C@H](CC(=O)O)C(=O)NCC(=O)N[C@H](CC(=O)N(C)[C@@H](CC1CCCCC1)C(=O)O)Cc1ccccc1")
"> 9.00"
>>> value("CCCC[C@@H](C(=O)O)N(C)C(=O)C[C@H](Cc1ccccc1)NC(=O)CNC(=O)[C@@H](CC(=O)O)NC(=O)[C@@H](N)Cc1c(C)cc(O)cc1C")
"> 9.00"
>>> value("Cc1cc(O)cc(C)c1C[C@H](N)C(=O)N[C@H](CCC(=O)O)C(=O)NCC(=O)N[C@H](CC(=O)N(C)[C@@H](C)C(=O)O)Cc1ccccc1")
"> 9.00"
>>> value("Cc1cc(O)cc(C)c1C[C@H](N)C(=O)N[C@H](C)C(=O)NCCC(=O)N[C@H](CC(=O)N(C)CC(N)=O)Cc1ccccc1")
"6.70 to 7.30"

Attention now shifts to the item below.
# input Enter reported pEC50 observed with δ-opioid receptor (DOR) (Homo sapiens, UniProt P41143) for "Cc1cc(O)cc(C)c1C[C@H](N)C(=O)N[C@H](C)C(=O)NCC(=O)N1Cc2ccccc2C[C@H]1C(=O)N(C)CC(N)=O"
# output 7.30 to 8.00

----------
target-or-system: μ-opioid receptor (MOR) (Homo sapiens, UniProt P35372)
Sequence (P35372 whole entry): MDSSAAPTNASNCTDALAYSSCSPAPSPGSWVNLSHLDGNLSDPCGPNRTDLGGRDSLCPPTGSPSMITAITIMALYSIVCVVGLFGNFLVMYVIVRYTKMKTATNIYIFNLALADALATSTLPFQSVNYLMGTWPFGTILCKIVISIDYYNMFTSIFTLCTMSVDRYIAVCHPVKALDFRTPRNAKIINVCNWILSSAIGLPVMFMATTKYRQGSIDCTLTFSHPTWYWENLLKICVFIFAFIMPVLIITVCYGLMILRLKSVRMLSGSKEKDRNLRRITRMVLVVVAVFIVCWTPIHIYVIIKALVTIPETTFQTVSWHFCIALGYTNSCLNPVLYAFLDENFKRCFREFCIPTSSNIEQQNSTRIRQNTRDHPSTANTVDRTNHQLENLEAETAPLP
procedure-details: MOR agonist cAMP assay (HitHunter cAMP, forskolin-stimulated)
Numbered stars: 1 amine (or outer) side, 2 acyl side, 3 side chain; on linkers, the order of the positions; unused ones are H or OH. Bridge positions count the residues as written; N and C are the ends. Square brackets hold non-standard residues; d marks the D form. Peptide text beside a SMILES is read from it. I, II: the chains in the order shown. Diglycolyl = O=C(COCC(=O)[*:2])[*:1]; Dmt = Cc1cc(O)cc(C)c1C[C@H](N)C(=O)O; β3hF = N[C@H](CC(=O)O)Cc1ccccc1; Sar = CNCC(=O)O
property: EC50

Sample records with EC50:
>>> value("CCCC[C@@H](C(=O)O)N(C)C(=O)C[C@H](Cc1ccccc1)NC(=O)CNC(=O)[C@@H](CC(=O)O)NC(=O)[C@@H](N)Cc1c(C)cc(O)cc1C")
"< 1 nM"
>>> value("Cc1cc(O)cc(C)c1C[C@H](N)C(=O)N[C@H](C)C(=O)NCC(=O)N[C@H](CC(=O)N(C)CC(=O)N[C@H](CCCCNC(=O)COCC(=O)NCCCC[C@@H](NC(=O)CN(C)C(=O)C[C@H](Cc1ccccc1)NC(=O)CNC(=O)[C@@H](C)NC(=O)[C@@H](N)Cc1c(C)cc(O)cc1C)C(N)=O)C(N)=O)Cc1ccccc1 [compound 271] (I: H-[Dmt][dA]G[β3hF][Sar][dK]-NH2 / II: H-[Dmt][dA]G[β3hF][Sar][dK]-NH2; linker I:6-II:6 via Diglycolyl)")
"1 to 10 nM"

# input Dear colleague, I am looking for the recorded EC50 of the following molecule: "CCCC[C@@H](C(=O)O)N(C)C(=O)C[C@H](Cc1ccccc1)NC(=O)CNC(=O)[C@@H](C)NC(=O)[C@@H](N)Cc1c(C)cc(C(N)=O)cc1C"
# output 1 to 10 nM

----------
target-or-system: δ-opioid receptor (DOR) (Homo sapiens)
Construct: host or cells: cAMP Hunter CHO-K1 OPRD1 Gαi cell line
procedure-details: DOR agonist cAMP assay (HitHunter cAMP, forskolin-stimulated)
Format: cell-based
pEC50: −log10 of the molar value.
Measured pEC50 of individual entries

Sample records with pEC50:
>>> value("Cc1cc(C(N)=O)cc(C)c1C[C@H](N)C(=O)N[C@H](C)C(=O)NCC(=O)N[C@H](CC(=O)N(C)[C@@H](C)C(=O)O)Cc1ccccc1")
"> 9.00"
>>> value("C[C@@H](NC(=O)C[C@@H](N)Cc1ccc(O)cc1)C(=O)NCC(=O)N[C@H](CC(=O)N(C)CC(N)=O)Cc1ccccc1")
"< 6.70"

Attention now shifts to the item below.
# input Dear colleague, I am looking for the recorded pEC50 of the following compound: "Cc1cc(O)cc(C)c1C[C@H](N)C(=O)N[C@H](CC(=O)O)C(=O)NCC(=O)N[C@H](CC(=O)N(C)[C@H](C(=O)O)C(C)C)Cc1ccccc1"
# output > 9.00

----------
procedure-details: Plasma assay (stability in mouse plasma)
Format: in vitro ADME
protocol-conditions: 37° C.
Measured half-life at 20 uM of individual entries

Sample records with half-life at 20 uM:
>>> value("Cc1cc(O)cc(C)c1C[C@H](N)C(=O)N[C@H](CC(=O)O)C(=O)NCC(=O)N[C@H](CC(=O)N(C)CC(N)=O)Cc1ccccc1 [compound 83]")
"> 24 h"
>>> value("CCCC[C@H](NC(=O)[C@H](Cc1ccccc1)NC(=O)CNC(=O)[C@@H](C)NC(=O)[C@@H](N)Cc1c(C)cc(O)cc1C)C(N)=O [compound 37]")
"6 to 24 h"

Attention now shifts to the item below.
# input Dear colleague, I am looking for the recorded half-life at 20 uM of the following compound: Cc1cc(O)cc(C)c1C[C@H](N)C(=O)N[C@H](C)C(=O)NCC(=O)N[C@H](CC(=O)N(C)CC(N)=O)Cc1ccccc1 [compound 43]
# output 6 to 24 h

----------
Measured pEC50 of individual entries
target-or-system: μ-opioid receptor (MOR) (Homo sapiens)
procedure-details: MOR agonist cAMP assay (HitHunter cAMP, forskolin-stimulated)
Protocol: The HitHunter® cAMP chemiluminescent assay kit (DiscoveRx, Cat# 90-0075 SM25) was used to detect cAMP production in cAMP Hunter™ Gαi cell lines over expressing either Human-ORPM1 (Discoverx, Catalog# 95-0107C2) or Human-ORPD1 (DiscoveRx, Catalog# 95-0108C2). […] Cellular cAMP concentrations were measured using the HitHunter cAMP Assay kit following the manufacturer's protocol. […] The amount of signal is directly proportional to the amount of cAMP in cells and can be quantified using cAMP standards. […]
pEC50: −log10 of the molar value. Square brackets hold non-standard residues; d marks the D form. Peptide text beside a SMILES is read from it. Bip = N[C@@H](Cc1ccc(-c2ccccc2)cc1)C(=O)O; Dmt = Cc1cc(O)cc(C)c1C[C@H](N)C(=O)O

>>> value("C[C@@H](NC(=O)[C@@H](N)Cc1ccc(C(N)=O)cc1)C(=O)NCC(=O)N[C@H](CC(=O)N(C)CC(N)=O)Cc1ccccc1")
"8.00 to 9.00"
>>> value("Cc1cc(O)cc(C)c1C[C@H](N)C(=O)N[C@H](CCCNC(=N)N)C(=O)N[C@@H](Cc1ccc(-c2ccccc2)cc1)C(=O)N[C@@H](CCCCN)C(N)=O [compound 3] (H-[Dmt][dR][Bip]K-NH2)")
"6.70 to 7.30"
>>> value("Cc1cc(O)cc(C)c1C[C@H](N)C(=O)N[C@@H](C(=O)NCC(=O)N[C@H](CC(=O)N(C)CC(N)=O)Cc1ccccc1)[C@H](C)O")
"> 9.00"
>>> value("CCCC[C@@H](C(=O)O)N(C)C(=O)C[C@H](Cc1ccc(F)cc1)NC(=O)CNC(=O)[C@@H](C)NC(=O)[C@@H](N)Cc1c(C)cc(C(N)=O)cc1C")
"> 9.00"
>>> value("CCCCCCCCCCCCCCCCN(CC(N)=O)C(=O)C[C@H](Cc1ccccc1)NC(=O)CNC(=O)[C@@H](C)NC(=O)[C@@H](N)Cc1c(C)cc(O)cc1C")
"8.00 to 9.00"
>>> value("C[C@@H](NC(=O)[C@@H](N)Cc1c[nH]c2ccc(O)cc12)C(=O)NCC(=O)N[C@H](CC(=O)N(C)CC(N)=O)Cc1ccccc1")
"6.70 to 7.30"

# input Dear colleague, I am looking for the recorded pEC50 of the following molecule: "CCCC[C@@H](C(=O)O)N(C)C(=O)C[C@H](Cc1cccc(C)c1)NC(=O)CNC(=O)[C@@H](C)NC(=O)[C@@H](N)Cc1c(C)cc(O)cc1C"
# output > 9.00
